glycan array binding signal (z-score) overview
# tested_on: Gal(b1-4)GlcNAc(b1-3)Gal(b1-4)GlcNAc(b1-2)Man(a1-3)[Gal(b1-4)GlcNAc(b1-3)Gal(b1-4)GlcNAc(b1-2)Man(a1-6)]Man(b1-4)GlcNAc(b1-4)[Fuc(a1-6)]GlcNAc
# test_name: glycan array binding signal (z-score within array); higher = stronger binding
# applied_conditions: glycan notation: IUPAC condensed, linker removed
About 410 targets per protein were measured; listed, in parts, are those with the strongest signals and a random draw of the rest.

binder	glycan array binding signal (z-score)
FimA-N3 (Actinomyces oris) (protein) MHHHHHHSSGVDLGTENLYFQSNAGLQGAQFQLYKAKNAYANTCSNEKEGAPIAINGQTTLTTDAQGAIDIKGLFISDSIDGADRDNQVNAMERCYVLVETKAPAGYVLPAGNGAATPVKVKAGEETTDN	-0.021
LngA (Escherichia coli) (protein) MLSVYNRTQKFKAEARKKIAKYHELRKQRGMSLLEVIIVLGIIGTIAAGVVILAQRAFDSRAVTDLVTNTNTVRVRMKDAYQRDGKYPDFVDPLSLTANTIKTDTSGIPAAQLVQLGKITPDEVRNNISGDFIAIGGALTSNGAQVKKGFAIELNGLSQEQCRSILGQVGNNWEYVAIGTSASGSYAMTATGVDMSVAASTTVLRSLGNNGQTTLTADKILSTCTAQVNSITLGSR	-0.289
HA-11100 (Pseudomonas aeruginosa), Q02G51_PSEAB (protein) QFNPNEIKISQQGKTTLIDQSTQRAIINWKGFDVSADEAVRFNQPGVTSSTLNRVTAGQESVIAGRISAPGQVIIYNSNGVVFSGSAKVDVGSLITTTANISDEHFRQGKLIFDQPGNPDARIVNDGSISVAEKGLAAFVAPSVANNGVINARLGTVAMAAGNAATIDLYG	10.5
